- Test system: 217524-143-R1-J4-PDC spheroids with HUVEC/MSC, viability;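 note: spheroids exposed to agents for seven days before reading; 100% = DMSO vehicle control viability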
- assay-overview: Anticancer human tumor 217524-143-R1-J4-PDC patient-derived pancreatic carcinoma cell line growth inhibition [CLK]
- measurement-conditions: second compound 0.316 µM; first compound 10 µM; active compounds read low

compound	system	viability, T/C, %
CC(CO)NC(=O)c1cc(-c2ccc(Cl)cc2)nn(-c2cnn(C)c2)c1=O (centres undefined) + CN1CCN(c2cc(C(=O)Nc3cc4cc(-c5cnn(C)c5)ccc4cn3)ccn2)CC1	217524-143-R1-J4-PDC spheroids with HUVEC/MSC, viability	16.7
CC1(C)CCC(CN2CCN(c3ccc(C(=O)NS(=O)(=O)c4ccc(NCC5CCOCC5)c([N+](=O)[O-])c4)c(Oc4cnc5[nH]ccc5c4)c3)CC2)=C(c2ccc(Cl)cc2)C1 + CNC(=O)c1ccc(Nc2nc(OC3CCCC3)c3c(-c4ccc5nc(C)oc5c4)c[nH]c3n2)c(OC)c1	217524-143-R1-J4-PDC spheroids with HUVEC/MSC, viability	37.1
C=CC(=O)N1CCN(c2nc(=O)n(-c3c(C)ccnc3C(C)C)c3nc(-c4c(O)cccc4F)c(F)cc23)C(C)C1 (centres undefined) + CNC(=O)c1ccc(Nc2nc(OC3CCCC3)c3c(-c4ccc5nc(C)oc5c4)c[nH]c3n2)c(OC)c1	217524-143-R1-J4-PDC spheroids with HUVEC/MSC, viability	43.4
COC1C=CCC(C)C(C)S(=O)(=O)NC(=O)c2ccc3c(c2)N(CC2CCC21)CC1(CCCc2cc(Cl)ccc21)CO3 (centres undefined) + CN1CCN(c2cc(C(=O)Nc3cc4cc(-c5cnn(C)c5)ccc4cn3)ccn2)CC1	217524-143-R1-J4-PDC spheroids with HUVEC/MSC, viability	16.6
O=c1[nH]cc(F)c(=O)[nH]1 + CN1CCN(c2cc(C(=O)Nc3cc4cc(-c5cnn(C)c5)ccc4cn3)ccn2)CC1	217524-143-R1-J4-PDC spheroids with HUVEC/MSC, viability	13.4
O=C(c1cc(Cc2n[nH]c(=O)c3ccccc23)ccc1F)N1CCN(C(=O)C2CC2)CC1 + CN1CCN(c2cc(C(=O)Nc3cc4cc(-c5cnn(C)c5)ccc4cn3)ccn2)CC1	217524-143-R1-J4-PDC spheroids with HUVEC/MSC, viability	17.5
CC(=O)O[C@H]1C(=O)[C@@]2(C)[C@H]([C@H](OC(=O)c3ccccc3)[C@]3(O)C[C@H](OC(=O)[C@H](O)[C@@H](NC(=O)c4ccccc4)c4ccccc4)C(C)=C1C3(C)C)[C@]1(OC(C)=O)CO[C@@H]1C[C@@H]2O + CNC(=O)c1ccc(Nc2nc(OC3CCCC3)c3c(-c4ccc5nc(C)oc5c4)c[nH]c3n2)c(OC)c1	217524-143-R1-J4-PDC spheroids with HUVEC/MSC, viability	33
CC(=O)O[C@H]1C(=O)[C@@]2(C)[C@H]([C@H](OC(=O)c3ccccc3)[C@]3(O)C[C@H](OC(=O)[C@H](O)[C@@H](NC(=O)c4ccccc4)c4ccccc4)C(C)=C1C3(C)C)[C@]1(OC(C)=O)CO[C@@H]1C[C@@H]2O + CN1CCN(c2cc(C(=O)Nc3cc4cc(-c5cnn(C)c5)ccc4cn3)ccn2)CC1	217524-143-R1-J4-PDC spheroids with HUVEC/MSC, viability	12.3
CC(CO)NC(=O)c1cc(-c2ccc(Cl)cc2)nn(-c2cnn(C)c2)c1=O (centres undefined) + CNC(=O)c1ccc(Nc2nc(OC3CCCC3)c3c(-c4ccc5nc(C)oc5c4)c[nH]c3n2)c(OC)c1	217524-143-R1-J4-PDC spheroids with HUVEC/MSC, viability	38.7
